- EXPERIMENT_NOTES: in vitro
- MEASUREMENT_CONTEXT: human, HEK293T cells
- Description: Cytotoxicity against HEK293T cells assessed as cell viability at 5.6 uM by CellTiter-Glo assay relative to control
Non-standard residues stand in square brackets, D forms with d. Residues, ends and D or L forms follow the SMILES beside them. *: point of attachment. X1 = O=C(OCCCS*)Oc1ccc2nc(C3=N[C@@H](C(=O)O)CS3)sc2c1; Mpa = O=C(O)CCS
MEASURED_ENDPOINT: viability at 5.6 µM (%)
Expressed in %, but write only the number.

[[record]]
molecule = "CC(C)C[C@H](NC(=O)CCSSCCCOC(=O)Oc1ccc2nc(C3=N[C@@H](C(=O)O)CS3)sc2c1)C(=O)N[C@@H](CCCCN)C(=O)N[C@@H](CCCNC(=N)N)C(=O)N[C@@H](Cc1c[nH]c2ccccc12)C(=O)N[C@@H](CCCCN)C(=O)N[C@@H](CC(C)C)C(=O)N[C@@H](Cc1ccccc1)C(=O)N[C@@H](CC(N)=O)C(=O)N[C@@H](CCCCN)C(=O)N[C@@H](CCC(N)=O)C(N)=O ([Mpa](X1)LKRWKLFNKQ-NH2)"
reading = 93.7


Here is the next item to consider.
Entry under test: CC(C)C[C@H](NC(=O)[C@H](CO)NC(=O)CCSSCCCOC(=O)Oc1ccc2nc(C3=N[C@@H](C(=O)O)CS3)sc2c1)C(=O)N[C@@H](CCCCN)C(=O)N[C@H](C(=O)N[C@@H](CCCNC(=N)N)C(=O)N[C@H](C(=O)N[C@@H](CC(C)C)C(=O)N[C@@H](CCCCN)C(=O)N[C@@H](CCCNC(=N)N)C(=O)N[C@@H](Cc1c[nH]c2ccccc12)C(N)=O)C(C)C)[C@@H](C)O ([Mpa](X1)SLKTRVLKRW-NH2) . Its viability at 5.6 µM was 89.6
